Target: recombinant human Meningioma Expressed Antigen 5 (MGEA5), also referred to as O-GlcNAcase (OGA) (Homo sapiens, UniProt O60502)
Construct: Full length OGA enzyme was purchased at OnGene (cat #TP322411); purchased OnGene (so in the source)
Sequence (O60502 whole entry): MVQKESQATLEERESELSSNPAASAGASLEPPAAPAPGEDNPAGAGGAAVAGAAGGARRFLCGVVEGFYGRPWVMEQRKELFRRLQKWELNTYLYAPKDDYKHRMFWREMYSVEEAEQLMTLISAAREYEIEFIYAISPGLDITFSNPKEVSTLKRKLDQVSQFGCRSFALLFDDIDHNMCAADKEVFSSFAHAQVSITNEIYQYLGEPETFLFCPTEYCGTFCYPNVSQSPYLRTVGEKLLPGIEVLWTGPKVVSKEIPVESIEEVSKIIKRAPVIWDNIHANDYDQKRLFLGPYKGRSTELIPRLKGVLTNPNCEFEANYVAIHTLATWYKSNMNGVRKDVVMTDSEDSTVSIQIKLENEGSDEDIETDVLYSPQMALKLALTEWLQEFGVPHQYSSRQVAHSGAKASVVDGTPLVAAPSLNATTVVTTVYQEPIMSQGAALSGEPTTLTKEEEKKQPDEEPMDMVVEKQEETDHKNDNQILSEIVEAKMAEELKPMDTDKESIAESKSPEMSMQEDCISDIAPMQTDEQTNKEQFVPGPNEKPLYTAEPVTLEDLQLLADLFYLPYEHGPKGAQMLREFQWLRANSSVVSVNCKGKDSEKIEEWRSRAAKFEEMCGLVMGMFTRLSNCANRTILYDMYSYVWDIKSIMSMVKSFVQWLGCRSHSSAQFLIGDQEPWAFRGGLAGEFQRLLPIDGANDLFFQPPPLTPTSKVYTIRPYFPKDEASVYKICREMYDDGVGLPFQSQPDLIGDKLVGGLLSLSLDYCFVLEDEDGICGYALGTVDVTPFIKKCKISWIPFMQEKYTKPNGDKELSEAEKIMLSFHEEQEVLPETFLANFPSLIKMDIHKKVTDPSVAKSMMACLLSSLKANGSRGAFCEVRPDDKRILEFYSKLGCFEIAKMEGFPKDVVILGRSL
Experiment: OGA biochemical assay (inhibition of FM-GlcNAc hydrolysis, fluorescence)
Conditions: read-out: Enzymatic hOGA, pIC50 (converted)
experimental readout: log10(IC50) (log10 of the value in nM)
Base-10 log of IC50, unit nM.

Example compounds with recorded log10(IC50):
Cc1cc(C[C@H]2CCCN(C(C)c3ccc4c(n3)OCC(=O)N4C)C2)cc(C)n1 (mixture of isomers) [Product 62]	3.50
Cc1cc(C[C@H]2CCCN(C(C)c3cc4c(cc3F)OCCO4)C2)cc(C)n1 (single isomer, unassigned) [Product 42]	0.30

Give the measured log10(IC50) of COc1cc(CN[C@H]2CCCN(C(C)c3ccc4c(n3)OCCO4)C2)cc(C)n1 (stereo partly drawn) [Product 198] .
1.60

Give the measured log10(IC50) of Cc1cc(OC2CCCN(C(C)c3cc4c(cc3F)OCCO4)C2)cc(C(F)(F)F)n1 (stereo not drawn) [Product 15] .
1.30
